Answer each item with its documented IC50.
biological target: Human Polymorphonuclear Leukocyte Elastase (Homo sapiens); construct: Crude extract of human polymorphonuclear leukocytes (PMN) containing elastase activity; endogenous in cells; host or cells: human polymorphonuclear leukocytes (crude extract); test: Inhibition of human polymorphonuclear leukocyte (granulocyte) elastase via hydrolysis of Boc-AAPAN; format: biochemical; details: crude human PMN extract, 0.2 mM Boc-AAPAN, pH 7.5, 410 mμ, 2 minutes after zero time; read-out: IC50 (dosage for 50% inhibition of the enzyme activity) (converted)
Sequence (P08246 30-247 limits assumed): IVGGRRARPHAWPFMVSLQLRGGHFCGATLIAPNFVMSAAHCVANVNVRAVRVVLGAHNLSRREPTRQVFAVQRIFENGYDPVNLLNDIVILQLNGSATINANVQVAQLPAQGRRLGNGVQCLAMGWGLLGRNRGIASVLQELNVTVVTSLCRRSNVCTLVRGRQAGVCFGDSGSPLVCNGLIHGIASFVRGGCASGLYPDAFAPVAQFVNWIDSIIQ
State the answer as a number, implicitly in µM.

Req: Supply IC50 value. Item: CC(C)(C)OC(=O)[C@@H]1CCCN1C(=O)[C@@H]1N2C(=O)[C@H](NC(=O)C(F)(F)F)[C@H]2S(=O)(=O)C1(C)C [6α-CF3 (CO)NH / 2 / drawing 31]
Resp: 40.2

Req: Supply IC50 value. Item: `CO[C@H]1C(=O)N2[C@@H](C(=O)Cc3ccccc3)C(C)(C)S(=O)(=O)[C@H]12`
Resp: 5.93

Req: Supply IC50 value. Item: `Cc1ccc(S(=O)(=O)N[C@H]2C(=O)N3[C@@H]2SC(C)(C)[C@@H]3C(=O)OCc2ccccc2)cc1`
Resp: 0.217

Data origin: patent US4847247A
